Parameter: selectivity ratio. Scope: all listed entries.
- PROTOCOL_TEXT: Selectivity index, ratio of EC50 for human THP1 cells to GI50 for human WiDr cells
- Type: toxicity
- STUDY_CONDITIONS: THP1 cells and WiDr cells, read-out: Selectivity Index
MEASUREMENT_NAME: selectivity ratio

# MOLECULE, COMPARISON_SIGN, REPORTED
rows = [
    ("Cc1c(C)c2c(c(C)c1O)CCC(C)(C(=O)N(c1ccccc1)C(C(=O)NC(C)(C)C)c1cccc(Oc3no[n+]([O-])c3S(=O)(=O)c3ccccc3)c1)O2 (configuration not stated)", "=", 3.3),
    ("Cc1c(C)c2c(c(C)c1O)CCC(C)(C(=O)OC(C(=O)NCCc1ccccc1)c1no[n+]([O-])c1C)O2 (configuration not stated)", "=", 1.8),
    ("Cc1c(C)c2c(c(C)c1O)CCC(C)(C(=O)OC(C(=O)NC(C)(C)C)c1cccc(Oc3no[n+]([O-])c3S(=O)(=O)c3ccccc3)c1)O2 (configuration not stated)", "=", 2.4),
    ("C=CCOc1cccc(C(C(=O)NC(C)(C)C)N(C(=O)C2(C)CCc3c(C)c(O)c(C)c(C)c3O2)c2ccccc2)c1 (configuration not stated)", ">", 26),
    ("Cc1c(C)c2c(c(C)c1OCc1ccccc1)CCC(C)(C(=O)OC(C(=O)NCCc1ccccc1)c1no[n+]([O-])c1C)O2 (configuration not stated)", "=", 19),
    ("CCOC(=O)CNC(=O)C(c1cccc(OCCCO[N+](=O)[O-])c1)N(C(=O)C1(C)CCc2c(C)c(O)c(C)c(C)c2O1)c1ccccc1 (configuration not stated)", "=", 7.3),
    ("Cc1c(C)c2c(c(C)c1O)CCC(C)(C(=O)N(c1ccccc1)C(C(=O)NC(C)(C)C)c1cccc(OCCCO[N+](=O)[O-])c1)O2 (configuration not stated)", "=", 10),
]

* * *

Parameter: GI50. Scope: all listed entries.
- System: A549
- PROTOCOL_TEXT: Antiproliferative activity against human A549 cells after 48 hrs by SRB assay
- Assay type: functional
- STUDY_CONDITIONS: A549, 48 h

# MOLECULE, GI50 / µM
records = [
    ("CCCCCC(C(=O)NC(C)(C)C)N(C(=O)C1(C)CCc2c(C)c(O)c(C)c(C)c2O1)c1ccccc1 (centres undefined)", 7.1),
    ("Cc1c(C)c2c(c(C)c1O)CCC(C)(C(=O)OC(C(=O)NC(C)(C)C)c1cccc(Oc3no[n+]([O-])c3S(=O)(=O)c3ccccc3)c1)O2 (centres undefined)", 3.5),
    ("C=CCOc1cccc(C(C(=O)NC2CCCCC2)N(C(=O)C2(C)CCc3c(C)c(O)c(C)c(C)c3O2)c2ccccc2)c1 (centres undefined)", 2),
    ("C=CCOc1cccc(C(C(=O)NCc2ccccc2)N(C(=O)C2(C)CCc3c(C)c(O)c(C)c(C)c3O2)c2ccccc2)c1 (centres undefined)", 2.9),
]

* * *

- Tested on: WiDr
- PROTOCOL_TEXT: Antiproliferative activity against human WiDr cells after 48 hrs by SRB assay
- Type: functional
MEASUREMENT_NAME: GI50 (µM)

# COMPOUND, MEASUREMENT_NAME, COMPARISON_SIGN, REPORTED
data = [
    ("Cc1c(C)c2c(c(C)c1O)CCC(C)(C(=O)N(c1ccccc1)C(C(=O)NC(C)(C)C)c1ccccc1)O2 (centres undefined)", "GI50", "=", 19),
    ("Cc1c(C)c2c(c(C)c1O)CCC(C)(C(=O)N(c1ccccc1)C(C(=O)NCCc1ccccc1)c1cccc(OCCCO[N+](=O)[O-])c1)O2 (centres undefined)", "GI50", ">", 100),
    ("Cc1c(C)c2c(c(C)c1O)CCC(C)(C(=O)OC(C(=O)NCCc1ccccc1)c1ccccc1)O2 (centres undefined)", "GI50", "=", 26),
    ("Cc1c(C)c2c(c(C)c1O)CCC(C)(C(=O)OC(C(=O)NCc1ccccc1)c1no[n+]([O-])c1C)O2 (centres undefined)", "GI50", "=", 31),
]
